Assignment: determine reported percent of parent for the given binders.
measurement_target: T1, Tetrahymena thermophila MTA1 (TthMTA1), untagged
T1 chain: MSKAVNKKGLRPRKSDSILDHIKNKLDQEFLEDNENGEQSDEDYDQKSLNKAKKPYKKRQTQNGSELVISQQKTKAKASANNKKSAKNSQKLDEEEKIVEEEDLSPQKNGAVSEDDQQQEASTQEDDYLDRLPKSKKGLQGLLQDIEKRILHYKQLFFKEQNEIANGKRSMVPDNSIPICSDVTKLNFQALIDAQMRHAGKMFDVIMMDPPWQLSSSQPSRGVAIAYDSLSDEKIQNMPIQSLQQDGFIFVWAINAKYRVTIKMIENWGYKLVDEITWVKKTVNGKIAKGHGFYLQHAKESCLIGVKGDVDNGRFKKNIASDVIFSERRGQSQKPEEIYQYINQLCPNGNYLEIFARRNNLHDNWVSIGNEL
experiment_summary: GST pull-down, gray scanning of bound MTA1 band
condition_info: chain shown with the change;; parent: 100
Numbers only, in %.

| binder | percent of parent / % |
| --- | --- |
| His6GST-Tthp2 Y17A (protein) MKKNGKSQNQPLDFTQAAKNMRKDLSNQDICLEDGALNHSYFLTKKGQYWTPLNQKALQRGIELFGVGNWKEINYDEFSGKANIVELELRTCMILGINDITEYYGKKISEEEQEEIKKSNIAKGKKENKLKDNIYQKLQQMQ | 0 |
| His6GST-Tthp2 D24A (protein) MKKNGKSQNQPLDFTQYAKNMRKALSNQDICLEDGALNHSYFLTKKGQYWTPLNQKALQRGIELFGVGNWKEINYDEFSGKANIVELELRTCMILGINDITEYYGKKISEEEQEEIKKSNIAKGKKENKLKDNIYQKLQQMQ | 77 |

Look at each binder and report its percent of parent.
1. His6GST-Tthp2 R22A (protein) MKKNGKSQNQPLDFTQYAKNMAKDLSNQDICLEDGALNHSYFLTKKGQYWTPLNQKALQRGIELFGVGNWKEINYDEFSGKANIVELELRTCMILGINDITEYYGKKISEEEQEEIKKSNIAKGKKENKLKDNIYQKLQQMQ
2. His6GST-Tthp2 S26A (protein) MKKNGKSQNQPLDFTQYAKNMRKDLANQDICLEDGALNHSYFLTKKGQYWTPLNQKALQRGIELFGVGNWKEINYDEFSGKANIVELELRTCMILGINDITEYYGKKISEEEQEEIKKSNIAKGKKENKLKDNIYQKLQQMQ
3. His6GST-Tthp2 Y41A (protein) MKKNGKSQNQPLDFTQYAKNMRKDLSNQDICLEDGALNHSAFLTKKGQYWTPLNQKALQRGIELFGVGNWKEINYDEFSGKANIVELELRTCMILGINDITEYYGKKISEEEQEEIKKSNIAKGKKENKLKDNIYQKLQQMQ

Response line:
0
50
0
